abundance fitness by entry:
B1: Chromodomain-helicase-DNA-binding protein 3, residues 374 to 426; numbered along this chain, Q12873 (parent)
chain: YETDHQDYCEVCQQGGEIILCDTCPRAYHLVCLDPELDRAPEGKWSCPHCEKE

- Variants of: B1
- method: abundance fitness (aPCA) (normalised: wild type 0, dead -1); higher = more abundant; growth selection in yeast, the domain comes from the species named
- condition context: Homo sapiens
value kind: abundance fitness

* E10N | 0.268
* Y28R | -0.256
* C21N | -0.903
* D34P | -0.089
* P35I | -0.3
* L20Q | -0.143
* G16Q | -0.251
* D22G | -0.191
* D38W | -0.319
* L33D | -0.755
* Y28Q | -0.445
